Cited source: patent US9115139B2

- assay-system: serotonin 5-HT2C receptor (VSV type isoform, stably expressing CHO cell) (Homo sapiens, UniProt P28335, I156V/I160V/N158S)
- Sequence (P28335 33-458 I156V/N158S/I160V limits assumed): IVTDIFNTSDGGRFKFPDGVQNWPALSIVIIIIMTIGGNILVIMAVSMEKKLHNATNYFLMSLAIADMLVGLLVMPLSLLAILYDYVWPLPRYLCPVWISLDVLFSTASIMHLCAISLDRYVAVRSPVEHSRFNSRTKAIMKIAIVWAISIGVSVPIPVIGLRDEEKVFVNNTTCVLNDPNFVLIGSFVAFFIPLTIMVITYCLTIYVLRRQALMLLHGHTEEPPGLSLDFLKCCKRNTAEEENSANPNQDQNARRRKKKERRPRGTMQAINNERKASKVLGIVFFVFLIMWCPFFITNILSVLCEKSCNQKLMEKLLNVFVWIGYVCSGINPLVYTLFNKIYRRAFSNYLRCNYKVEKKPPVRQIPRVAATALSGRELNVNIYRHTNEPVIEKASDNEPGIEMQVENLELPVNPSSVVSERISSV
- Format: cell-based
Consider the following compounds; for each one, report its ratio (%) relative to maximum response by 5-HT (1 μM).
The answer is to be given in %; state only the numeric part.

Task: Looking for the measured ratio (%) relative to maximum response by 5-HT (1 μM) of Cl.c1nc2c(nc1C1CC1)OCCNC2 [Example 10] , can you help?
Output: 89

Task: Looking for the measured ratio (%) relative to maximum response by 5-HT (1 μM) of C[C@@H]1COCCN1c1cnc2c(n1)OCCNC2.Cl [Example 5] , can you help?
Output: 95

Task: Looking for the measured ratio (%) relative to maximum response by 5-HT (1 μM) of CC(C)Oc1cnc2c(n1)OCCNC2.Cl [Example 2] , can you help?
Output: 93

Task: Looking for the measured ratio (%) relative to maximum response by 5-HT (1 μM) of CC(C)N(C)c1cnc2c(n1)OCCNC2.Cl [Example 8] , can you help?
Output: 95
